assay: gradient 5% acetonitrile 3 min, to 50% in 2 min, to 85% in 15 min, held 3 min, 100 µL/min; conditions: column: Zorbax Extend-C18 2.1 x 50 mm; eluents: water / acetonitrile, 0.1% formic acid
experimental_readout: RP-LC retention time
Number plus unit, in that order.

molecule	RP-LC retention time
Cc1ccc(-c2nc(C)c(C(=O)NC(C)C)s2)cc1	949 s
CCOc1ccc(S(=O)(=O)N2CCCC(C(=O)NCCc3ccc(OC)c(OC)c3)C2)cc1 (centres undefined)	884 s
CCOC(=O)N1CCN(c2c(N3CCN(c4ccccn4)CC3)c(=O)c2=O)CC1	562 s

What RP-LC retention time value was documented for this molecule, Oc1ccc(Cl)cc1C1CC(c2ccc(Cl)cc2)=NC2(CCN(Cc3ccccc3)CC2)N1 (centres undefined) ?
791 s

###

assay: gradient 5% acetonitrile 3 min, to 50% in 2 min, to 85% in 15 min, held 3 min, 100 µL/min; conditions: column: Zorbax Extend-C18 2.1 x 50 mm; eluents: water / acetonitrile, 0.1% formic acid
experimental_readout: RP-LC retention time (s)
Answer format: numeric, s implied, no suffix.

Would you please look over these solved cases?
compound	result_unit	RP-LC retention time
C[C@@H]1C(=O)O[C@H]2[C@H](O)[C@@]34C5C[C@@H](C(C)(C)C)[C@]36[C@H](OC(=O)[C@@H]6O)OC4(C(=O)O5)[C@@]12O (stereo partly specified)	s	802
CCCN1C(=O)C(CC(=O)NC2CCCCC2)Sc2ncccc21 (stereo unspecified)	s	803

What RP-LC retention time value was documented for this compound, c1ccc(-c2nc(-c3cnccn3)no2)c(OC2CCN(C3CCSCC3)C2)c1 (stereo unspecified) ?
653

What RP-LC retention time value was documented for this compound, `CCOc1ccc2nc(C(=O)NC3CC3)cn2n1` ?
697

What RP-LC retention time value was documented for this compound, `Cc1ccc(CNC(=O)c2cc3c(s2)CCN(C(=O)c2ccccc2)C3)o1` ?
881

What RP-LC retention time value was documented for this compound, `O=C(CCN1C(=O)c2ccccc2C1=O)OCC(=O)c1ccc(Cl)cc1Cl` ?
954

What RP-LC retention time value was documented for this compound, Cc1nc(-c2cccc(N3CC(C(=O)N4CCCc5ccccc54)CC3=O)c2)no1 (stereo unspecified) ?
783

What RP-LC retention time value was documented for this compound, `CO[C@H]1C(=O)N(C(C)C)[C@H]1C1CCN(C(=O)c2cnccn2)CC1` ?
621

What RP-LC retention time value was documented for this compound, `COC(=O)c1cnc2nc(-c3ccccc3Cl)nn2c1C` ?
860

What RP-LC retention time value was documented for this compound, `CCCN(CCC)C(=O)C1CCN(C(=O)c2ccccc2Cl)CC1` ?
602

What RP-LC retention time value was documented for this compound, CCC(C)OC(=O)c1[nH]c2c(c1C)C(=O)CC(c1ccc(N(C)C)cc1)C2 (stereo unspecified) ?
764

###

experiment: gradient 5% acetonitrile 3 min, to 50% in 2 min, to 85% in 15 min, held 3 min, 100 µL/min; details: column: Zorbax Extend-C18 2.1 x 50 mm; eluents: water / acetonitrile, 0.1% formic acid
Response field label takes y when RP-LC retention time is strictly below 800 s and n in all other cases.

molecule	label
O=c1n(Cc2cccc(F)c2)nc2c(S(=O)(=O)N3CCc4ccccc4C3)cccn12	n
O=S(=O)(c1cccc(-c2nnc(-c3ccccc3Br)o2)c1)N1CCCC1	n
CCc1ccc(CNC(=O)c2nc3cccnc3n(CC(C)C)c2=O)cc1	n
Cc1ccccc1CC(=O)N1CCC(n2c(=O)n(C)c3cncnc32)C1 (stereo not drawn)	y

State whether 800 s exceeds RP-LC retention time recorded for `Nc1ccc(Cl)cc1C(=O)c1ccccc1Cl` .
n

State whether 800 s exceeds RP-LC retention time recorded for CC(C)NC(=O)c1ccc(OCC2CCCN(C(=O)c3ccc(F)c(F)c3)C2)cc1 (stereo not drawn) .
n

State whether 800 s exceeds RP-LC retention time recorded for O=C1CC(C(=O)N2CCCC2)CN1CCc1c[nH]c2ccc(Cl)cc12 (stereo not drawn) .
y
